Known Counts/minute bound of a selection of binders
Target: T1, recombinant human IL-6 (human, UniProt P05231 30-212, labeled with radioactive iodine)
T1 construct: Labeled probe in solution, added to wells that carry the synthetic peptides; also called IL-6 ligand; Interleukin-6
Assay: radioiodinated IL-6 on peptide array; experiment D1-D10
Give just the number in counts/minute; leave the unit off.

Recorded Counts/minute bound, per entry:
* ATSLPVQDSSSVPLPTFLVAG [Peptide D1] | 4000
* GGSLAFGTLLCIAIVLRFKKT (also called D11; D27) [Peptide D5] | 159000

Kindly consider the entry below.
Exercise: // returns reported Counts/minute bound for input TWKLRALKEGKTSMHPPYSLG [Peptide D9]
Key: 5530
